# procedure.text: yeast display, Sf9 membrane polyspecificity reagent, FACS + sequencing; frameworks hold sequencing errors
recorded.endpoint: polyreactivity (PSR sort gate)

1) QVQLVESGGGLVQAGGSLRLSCAASGITFYTYAMGWYRQAPGKERELVAAITNGGNTSYADSVKGRFTISRDNAKNTVYLQMNSLKPEDTAVYYCAAVVTLPIWGNWYYVRYGYWGQGTQVTVSS; low polyreactivity
2) QVQLVESGGGLVQAGGSLRLSCAAYGYTFGYYTMGWYRQAPWKERQLVASIDSGGGTNYADSVKGRFTISRDNAKNTVYLQMNSLKPEDTAVYYCAAESPLYWVDDFESGWRYYYWGQGTQVTVSS; low polyreactivity
3) QVQLVESGGGLVQAGGSLRLSCAASGRTFSSYAMGWYRPAPGKERELVAAITKRAGNTYYADSVKGRFTISRDNAKNTVYLQMNSLKPEDTAVYYCAAGWERFRNYNYWGQGTQVTVSS; high polyreactivity
4) QVQLVESGGGLVQAGGSLRLSCAASGFTFTRYAMGWYRQAPGKERELVAAISWNSGSTYYADSVKGRFTISRDNAKNTVYLQMNSLKPEDTAVYYCAAAFLRVYYGYTGAFDYWGQGTQVTVSS; high polyreactivity
5) QVQLVESGGGLVQAGGSLRLSCAASGFTFRRYAMGWYRQAPGKERELVAAISRRGVTTYYADSVKGRFTISRDNAKNTVYLQMISLKPEDTAVYYCAADHNPSIGDDSWGQGTQVTVSS; high polyreactivity
6) QVQLVESGGGLVHAGGSLSLSCAASGFILGVYAMGWYRQEPGKERELVAAITFTGASTYYADSVKGRFTLSRDNAKNTVYLQMNSLKPEDTAVNYCNKSSAYYRYEYWGQGTQVTVSS; low polyreactivity
7) QVQLVESGGGLVQAGGSLRLSCAASGRTFRLYAMGWYRQAPGKERELVAAIRSGGSTNYADSVKGRFTISRDNEKNTVYLQMNSLKPEYTAVYYCAVDGYFFQGPYYYWGQGTQVTVSS; low polyreactivity
8) QVQLVESGGGLVQAGGSLRLSCAASGRIFVHNSMGWYRQAPGKERELVAAISSCGRTYYADSVKGRFTISRDNAKNTVYFQMNSLKPEDTAVYYCNAGRTNRAGRRWPMDYWGQGTHVTVSS; high polyreactivity
9) QVQLVESGGGLVQAGGSLRLSCAASGLIFNLYAMGWYRQAPGKEREFVATITGIGGSTYYADSVKGRFTISRDNAKNTVYLQMNSLKPEDTAVYYCAADAWFLPYNDWGQGTQVTVSS; low polyreactivity
10) QVQLVESGGGLVQAGGSLRLSCAASGRIFGYYTMGSYRQAPGKEMELVATINWSGGSTYYADSVKGRFTISRDNAKNTVYLQMNSLKPEDTAVYYCADRPALWGRYRGYDYWGQGTQVTVSS; high polyreactivity
11) QVQLVESRGGLVQAGVSLRLSCASSGRIVGWYAMGWYIQAPGKERELVAVITWSDGRTYYADSVKGRFTISRDNAKNTVYLQMNSLKPEDTAVFYCAAADWITEYDYWGQGTQVTVSS; low polyreactivity

All figures here come from the nanobody polyreactivity screen of Harvey et al. (2022).
